- study target: rPAPD5 (Homo sapiens, UniProt Q8NDF8)
- Construct: made in house
- Sequence (Q8NDF8 68-698 isoform Q8NDF8-5 limits assumed): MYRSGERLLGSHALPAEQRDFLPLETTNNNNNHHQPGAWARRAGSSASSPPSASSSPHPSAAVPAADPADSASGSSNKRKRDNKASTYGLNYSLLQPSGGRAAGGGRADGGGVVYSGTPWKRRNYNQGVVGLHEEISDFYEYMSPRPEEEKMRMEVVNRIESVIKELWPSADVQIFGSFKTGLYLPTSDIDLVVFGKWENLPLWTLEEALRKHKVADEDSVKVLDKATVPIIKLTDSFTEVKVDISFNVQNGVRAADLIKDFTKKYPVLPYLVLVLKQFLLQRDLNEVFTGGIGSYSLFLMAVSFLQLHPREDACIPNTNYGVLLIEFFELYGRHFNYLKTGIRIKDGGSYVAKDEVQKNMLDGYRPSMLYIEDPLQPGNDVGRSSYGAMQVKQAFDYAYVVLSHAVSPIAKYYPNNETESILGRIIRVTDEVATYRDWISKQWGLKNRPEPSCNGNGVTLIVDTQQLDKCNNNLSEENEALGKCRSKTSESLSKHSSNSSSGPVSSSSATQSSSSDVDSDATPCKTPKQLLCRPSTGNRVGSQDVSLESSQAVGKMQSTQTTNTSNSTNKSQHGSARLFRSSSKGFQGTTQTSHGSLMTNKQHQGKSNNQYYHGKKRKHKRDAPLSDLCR
- test details: differential scanning fluorimetry (DSF) binding and stabilization of rPAPD5
- condition: 100 μM test compound; shift vs DMSO control; read-out: ΔTm at 100 μM
readout label: ΔTm at 100 µM

### Prompt I would be grateful if you could share the reported ΔTm at 100 µM for O=C(O)c1ccccc1Nc1c(S(=O)(=O)N2CCOCC2)cnc2ccc(NC3CCOCC3)cc12 [Compound 237A] .
### Response < 1 °C

### Prompt I would be grateful if you could share the reported ΔTm at 100 µM for COc1ccc(Nc2c(-c3ncco3)cnc3ccc(Cl)cc23)c(C(=O)O)c1 [Compound 302A] .
### Response > 5 °C

### Prompt I would be grateful if you could share the reported ΔTm at 100 µM for Cc1ccc(Nc2c(S(=O)(=O)N3CCOCC3)cnc3ccc(Cl)cc23)c(C(=O)O)c1 [Compound 269A] .
### Response > 5 °C

### Prompt I would be grateful if you could share the reported ΔTm at 100 µM for O=C(O)c1ccccc1Nc1c(S(=O)(=O)N2CCOCC2)cnc2ccccc12 [Compound 250A] .
### Response > 5 °C

### Prompt I would be grateful if you could share the reported ΔTm at 100 µM for O=C(O)c1cc(Cl)c(F)cc1Nc1c(S(=O)(=O)N2CCSCC2)cnc2ccc(Cl)cc12 [Compound 425A] .
### Response > 5 °C

### Prompt I would be grateful if you could share the reported ΔTm at 100 µM for O=C(O)c1c(Nc2c(S(=O)(=O)N3CCOCC3)cnc3ccc(Cl)cc23)cccc1-c1ccn[nH]1 [Compound 91A-Cl] .
### Response 1 to 5 °C

### Prompt I would be grateful if you could share the reported ΔTm at 100 µM for CN(C)c1cncc(-c2ccc3ncc(S(=O)(=O)N4CCOCC4)c(Nc4ccccc4C(=O)O)c3c2)c1 [Compound 152A] .
### Response 1 to 5 °C

### Prompt I would be grateful if you could share the reported ΔTm at 100 µM for O=C(O)c1cc(Cl)ccc1Sc1c(S(=O)(=O)N2CCOCC2)cnc2ccc(Cl)cc12 [Compound 330A] .
### Response > 5 °C

====

- study target: rPAPD5 (Homo sapiens)
- Construct: made in house
- test details: differential scanning fluorimetry (DSF) binding and stabilization of rPAPD5
- condition: 100 μM test compound; shift vs DMSO control; read-out: ΔTm at 100 μM
readout label: ΔTm at 100 µM

### Prompt I would be grateful if you could share the reported ΔTm at 100 µM for O=C(O)c1ccccc1Nc1c(C2CCOCC2)cnc2ccc(Cl)cc12 [Compound 204A] .
### Response > 5 °C

### Prompt I would be grateful if you could share the reported ΔTm at 100 µM for O=C(O)c1cc(Cl)ccc1Nc1c(N2CCNCC2)cnc2ccc(Cl)cc12 [Compound 362A] .
### Response > 5 °C

### Prompt I would be grateful if you could share the reported ΔTm at 100 µM for N#Cc1ccc(-c2ccc3ncc(S(=O)(=O)N4CCOCC4)c(Nc4ccccc4C(=O)O)c3c2)cn1 [Compound 164A] .
### Response 1 to 5 °C

### Prompt I would be grateful if you could share the reported ΔTm at 100 µM for O=C(O)c1ccccc1Nc1c(S(=O)(=O)N2CCOCC2)cnc2ccc(-c3cncnc3)cc12 [Compound 154A] .
### Response > 5 °C

### Prompt I would be grateful if you could share the reported ΔTm at 100 µM for O=C(O)c1cc(Cl)ccc1Nc1c(S(=O)(=O)N2CCSCC2)cnc2c(F)cc(Cl)cc12 [Compound 421A] .
### Response > 5 °C

### Prompt I would be grateful if you could share the reported ΔTm at 100 µM for O=C(O)c1ccc(C(F)(F)F)cc1Nc1c(S(=O)(=O)N2CCOCC2)cnc2ccc(Cl)cc12 [Compound 278A] .
### Response 1 to 5 °C

### Prompt I would be grateful if you could share the reported ΔTm at 100 µM for O=C(O)c1ccccc1Nc1c(C2=CCOCC2)cnc2ccc(Cl)cc12 [Compound 204A-INT] .
### Response > 5 °C

### Prompt I would be grateful if you could share the reported ΔTm at 100 µM for O=C(O)c1ccccc1Nc1c(NC2CCOCC2)cnc2ccc(Cl)cc12 [Compound 184A] .
### Response > 5 °C

### Prompt I would be grateful if you could share the reported ΔTm at 100 µM for O=C(O)c1ccc(B(O)O)cc1Nc1c(S(=O)(=O)N2CCOCC2)cnc2ccc(Cl)cc12 [Compound 289A] .
### Response > 5 °C

### Prompt I would be grateful if you could share the reported ΔTm at 100 µM for O=C(O)c1cc(Cl)ccc1Nc1c(S(=O)(=O)N2CCS(=O)(=O)CC2)cnc2ccc(Cl)cc12 [Compound 429A] .
### Response > 5 °C

### Prompt I would be grateful if you could share the reported ΔTm at 100 µM for CN1CCN(c2cnc3ccc(Cl)cc3c2Nc2ccc(Cl)cc2C(=O)O)CC1 [Compound 361A] .
### Response > 5 °C

### Prompt I would be grateful if you could share the reported ΔTm at 100 µM for O=C(O)c1ccccc1Nc1c(-c2cnco2)cnc2ccc(Cl)cc12 [Compound 134A] .
### Response > 5 °C

### Prompt I would be grateful if you could share the reported ΔTm at 100 µM for COCCn1cc(-c2ccc3ncc(S(=O)(=O)N4CCOCC4)c(Nc4ccccc4C(=O)O)c3c2)cn1 [Compound 145A] .
### Response > 5 °C

### Prompt I would be grateful if you could share the reported ΔTm at 100 µM for O=C(O)c1cc(Cl)ccc1Nc1c(-c2nnn[nH]2)cnc2ccc(Cl)cc12 [Compound 359A] .
### Response > 5 °C

### Prompt I would be grateful if you could share the reported ΔTm at 100 µM for O=C(O)c1cc(F)ccc1Nc1c(C2CCOCC2)cnc2ccc(Cl)cc12 [Compound 303A] .
### Response > 5 °C

### Prompt I would be grateful if you could share the reported ΔTm at 100 µM for O=C(O)c1ccccc1Nc1c(S(=O)(=O)N2CCOCC2)cnc2ccc(-c3cn(S(=O)(=O)c4ccccc4)c4ncccc34)cc12 [Compound 144A] .
### Response > 5 °C

### Prompt I would be grateful if you could share the reported ΔTm at 100 µM for N#Cc1ccc(Nc2c(S(=O)(=O)N3CCOCC3)cnc3ccc(Cl)cc23)c(C(=O)O)c1 [Compound 338A] .
### Response > 5 °C

### Prompt I would be grateful if you could share the reported ΔTm at 100 µM for O=C(O)c1ccccc1Nc1c(C2=CCC(F)(F)CC2)cnc2ccc(Cl)cc12 [Compound 205A-INT] .
### Response > 5 °C

### Prompt I would be grateful if you could share the reported ΔTm at 100 µM for COc1ccc(Nc2c(C3=CCOCC3)cnc3ccc(Cl)cc23)c(C(=O)O)c1 [Compound 308A] .
### Response > 5 °C

### Prompt I would be grateful if you could share the reported ΔTm at 100 µM for Cc1cc(OC(C)C)ncc1-c1ccc2ncc(S(=O)(=O)N3CCOCC3)c(Nc3ccccc3C(=O)O)c2c1 [Compound 161A] .
### Response < 1 °C

### Prompt I would be grateful if you could share the reported ΔTm at 100 µM for O=C(O)c1cc(Cl)ccc1Nc1c(S(=O)(=O)N2CCOCC2)cnc2ccc(Cl)cc12 [Compound 266A] .
### Response > 5 °C

### Prompt I would be grateful if you could share the reported ΔTm at 100 µM for COc1ncc(-c2ccc3ncc(S(=O)(=O)N4CCOCC4)c(Nc4ccccc4C(=O)O)c3c2)cc1N [Compound 166A] .
### Response 1 to 5 °C

### Prompt I would be grateful if you could share the reported ΔTm at 100 µM for Cn1cc(-c2ccc3ncc(S(=O)(=O)N4CCOCC4)c(Nc4ccccc4C(=O)O)c3c2)ccc1=O [Compound 150A] .
### Response > 5 °C

### Prompt I would be grateful if you could share the reported ΔTm at 100 µM for O=C(O)c1cccc(Cl)c1Nc1c(S(=O)(=O)N2CCOCC2)cnc2ccc(Cl)cc12 [Compound 280A] .
### Response > 5 °C

### Prompt I would be grateful if you could share the reported ΔTm at 100 µM for O=C(O)c1ccccc1Nc1c(S(=O)(=O)N2CCOCC2)cnc2ccc(-c3cnn(C4CCOC4)c3)cc12 (stereo not shown) [Compound 148A-R] .
### Response 1 to 5 °C

### Prompt I would be grateful if you could share the reported ΔTm at 100 µM for O=C(O)c1cc(Cl)ccc1Nc1c(C2=CCOCC2)cnc2ccc(Cl)cc12 [Compound 297A] .
### Response > 5 °C

### Prompt I would be grateful if you could share the reported ΔTm at 100 µM for CC(C)c1ccc(Nc2c(S(=O)(=O)N3CCOCC3)cnc3ccc(Cl)cc23)c(C(=O)O)c1 [Compound 320A] .
### Response 1 to 5 °C

### Prompt I would be grateful if you could share the reported ΔTm at 100 µM for O=C(O)c1c(O)cccc1Nc1c(S(=O)(=O)N2CCC(F)(F)CC2)cnc2ccc(OC(F)(F)F)cc12 [Compound 133A] .
### Response > 5 °C

### Prompt I would be grateful if you could share the reported ΔTm at 100 µM for Cl.O=C(O)c1cc(Cl)ccc1Nc1c(-c2ncco2)cnc2ccc(Cl)cc12 [Compound 295A] .
### Response > 5 °C

### Prompt I would be grateful if you could share the reported ΔTm at 100 µM for O=C(O)c1c(Nc2c(S(=O)(=O)N3CCOCC3)cnc3ccc(Cl)cc23)ccc(Cl)c1O [Compound 324A] .
### Response > 5 °C

### Prompt I would be grateful if you could share the reported ΔTm at 100 µM for CNC(=O)c1ccc(-c2ccc3ncc(S(=O)(=O)N4CCOCC4)c(Nc4ccccc4C(=O)O)c3c2)cn1 [Compound 167A] .
### Response < 1 °C
